system: SK-OV-3; assay: Proliferation assay, mono and fixed-ratio combinations (Cell Titre-Glo, 96 h); assay type: cell-based, human; settings: SK-OV-3, single compound, 96 hour exposure
observable: IC50 (nM)

INSERT INTO assay_data (compound, observable, experimental_result) VALUES
  ('COc1c(OCCCN2CCOCC2)ccc2c1N=C(NC(=O)c1cnc(N)nc1)N1CCN=C21.Cl.Cl [Compound A, dihydrochloride]', 'IC50', 82);

* * *

system: PLC/PRF/5; assay: Proliferation assay, mono and fixed-ratio combinations (Cell Titre-Glo, 96 h); assay type: cell-based, human; details: PLC/PRF/5, single compound, 96 hour exposure
pIC50: −log10 of the molar value.
observable: pIC50

INSERT INTO assay_data (compound, observable, experimental_result) VALUES
  ('COc1c(OCCCN2CCOCC2)ccc2c1N=C(NC(=O)c1cnc(N)nc1)N1CCN=C21.Cl.Cl [Compound A, dihydrochloride]', 'pIC50', 6.74);

* * *

test system: SNU-449; assay: Proliferation assay, mono and fixed-ratio combinations (Cell Titre-Glo, 96 h); format: cell-based, human; conditions: SNU-449, single compound, 96 hour exposure
observable: IC50

INSERT INTO assay_data (compound, observable, experimental_result) VALUES
  ('COc1c(OCCCN2CCOCC2)ccc2c1N=C(NC(=O)c1cnc(N)nc1)N1CCN=C21.Cl.Cl [Compound A, dihydrochloride]', 'IC50', '100 nM');
